# experimentalSystem: HCV E1E2 antigen, isolate UKN2B1.1 (hepatitis C virus, isolate UKN2B1.1)
# testName: ELISA, Fab on E1E2 antigen
readoutName: OD 450 nm (OD 450 nm)
Lab book: enter the figure in OD 450 nm, no units written.

binder	resultValue
Fab P1a (Fab, V domains shown) VH: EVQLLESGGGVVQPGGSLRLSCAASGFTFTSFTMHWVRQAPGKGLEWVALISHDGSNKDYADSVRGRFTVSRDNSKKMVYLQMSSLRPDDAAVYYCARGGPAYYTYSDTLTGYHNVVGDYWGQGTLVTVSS VL: ELTQSPGTLSLSPGERATLSCRTSQSVSSTYLAWYQQKPGQPPRLLIYGASNRAPGIPDRFSGSGSGTDFTLTISRLEPEDFAVYYCQQYGDSPPITFGQGTRLDIKR	0

Problem: Fill in: OD 450 nm of Fab N2 (Fab, V domains shown) VH: VQLLEQSGPEVKKPGDSLRISCKMSGDSLVTTWIGWVRQKPGQGLEWMGIINPGDSSTNIYPGDSATRYGPSFQGQVTISIDKSTSTAYLQWNTVKPSDTGIYYCARHVPVPISGTFLWREREMHDFGYFDDWGQGTLVIVSS VL: ELTQSPGTLSLFPGERATLSCRASQSILGRYLAWYQQKGGRAPRLLIFGASKRATGIPDRFSGSGSGTDFTLTIGRLEPEDFAVYYCQHYGSSITFGQGTRLDIKR is ___
Solution: 0.44
